target: RAC-alpha serine/threonine-protein kinase (Homo sapiens); experiment: Akt1 TR-FRET assay: His-tagged human recombinant kinase full-length Akt1 expressed in insect cells was purchased form Invitrogen (part number PV 3599). As substrate for the kinase reaction the biotinylated peptide biotin-Ahx-KKLNRTLSFAEPG (C-terminus in amide form) was used which can be purchased e.g. from the company Biosynthan GmbH (Berlin-Buch, Germany). For the assay 50 nl of a 100 fold concentrated solution of the test compound in DMSO was pipetted into a black low volume 384 well microtiter plate (Greiner Bio-One, Frickenhausen, Germany), 2 μl of a solution of Akt1 in assay buffer [50 mM TRIS/HCl pH 7.5, 5 mM MgCl2, 1 mM dithiothreitol, 0.02% (v/v) Triton X-100 (Sigma)] were added and the mixture was incubated for 15 min at 22 °C. to allow prebinding of the test compounds to the enzyme before the start of the kinase reaction. Then the kinase reaction was started by the addition of 3 μl of a solution of adenosine-tri-phosphate (ATP, 16.7 μM=>final conc. in the 5 μl assay volume is 10 μM) and substrate (1.67 μM=>final conc. in the 5 μl assay volume is 1 μM) in assay buffer and the resulting mixture was incubated for a reaction time of 60 min at 22 °C. The concentration of Akt1 in the assay was adjusted depending of the activity of the enzyme lot and was chosen appropriate to have the assay in the linear range, typical enzyme concentrations were in the range of about 0.05 ng/μl (final conc. in the 5 μl assay volume). The reaction was stopped by the addition of 5 μl of a solution of HTRF detection reagents (200 nM streptavidine-XL665 [Cisbio] and 1.5 nM anti-phosho-Serine antibody [Millipore, cat. #35-001] and 0.75 nM LANCE Eu-W 1024 labeled anti-mouse IgG antibody [Perkin Elmer]) in an aqueous EDTA-solution (100 mM EDTA, 0.1% (w/v) bovine serum albumin in 50 mM HEPES/NaOH pH 7.5). The resulting mixture was incubated 1 h at 22 °C. to allow the binding of the biotinylated phosphorylated peptide to the streptavidine-XL665 and the antibodies. Subsequently the amount of phosphorylated substrate was evaluated by measurement of the resonance energy transfer from the anti-mouse-IgG-Eu-Chelate to the streptavidine-XL665. Therefore, the fluorescence emissions at 620 nm and 665 nm after excitation at 350 nm was measured in a HTRF reader, e.g. a Rubystar (BMG Labtechnologies, Offenburg, Germany) or a Viewlux (Perkin-Elmer). The ratio of the emissions at 665 nm and at 622 nm was taken as the measure for the amount of phosphorylated substrate. The data were normalised (enzyme reaction without inhibitor=0% inhibition, all other assay components but no enzyme=100% inhibition).
Sequence (P31749 whole entry): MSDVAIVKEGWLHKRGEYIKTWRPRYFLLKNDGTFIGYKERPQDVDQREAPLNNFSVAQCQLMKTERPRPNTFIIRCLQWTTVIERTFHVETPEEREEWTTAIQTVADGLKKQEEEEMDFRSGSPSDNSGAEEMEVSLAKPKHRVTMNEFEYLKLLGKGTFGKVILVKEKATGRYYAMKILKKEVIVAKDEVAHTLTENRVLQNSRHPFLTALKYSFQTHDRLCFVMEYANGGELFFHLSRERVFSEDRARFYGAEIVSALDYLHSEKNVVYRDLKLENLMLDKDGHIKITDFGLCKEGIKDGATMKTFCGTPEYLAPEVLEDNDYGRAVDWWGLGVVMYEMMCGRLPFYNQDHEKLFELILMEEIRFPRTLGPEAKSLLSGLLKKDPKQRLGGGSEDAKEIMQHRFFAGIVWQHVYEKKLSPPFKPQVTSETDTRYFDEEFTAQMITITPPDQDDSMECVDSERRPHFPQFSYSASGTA
Endpoint name: IC50 (nM)

Compound string: CCOC(=O)c1cn2c(-c3ccccc3)c(-c3ccc(C4(N)CCC4)cc3)nc2cn1
Test system: RAC-alpha serine/threonine-protein kinase (Homo sapiens)
Unit info: nM
Value reported: 100

----------
target: RAC-beta serine/threonine-protein kinase (Homo sapiens, UniProt P31751); experiment: Akt2 TR-FRET assay: His-tagged human recombinant kinase full-length Akt2 expressed in insect cells and activated by PDK1 was purchased from Invitrogen (part number PV 3975). As substrate for the kinase reaction the biotinylated peptide biotin-Ahx-KKLNRTLSFAEPG (C-terminus in amide form) was used which can be purchased e.g. from the company Biosynthan GmbH (Berlin-Buch, Germany). For the assay 50 nl of a 100 fold concentrated solution of the test compound in DMSO was pipetted into a black low volume 384 well microtiter plate (Greiner Bio-One, Frickenhausen, Germany), 2 μl of a solution of Akt2 in assay buffer [50 mM TRIS/HCl pH 7.5, 5 mM MgCl2, 1 mM dithiothreitol, 0.02% (v/v) Triton X-100 (Sigma)] were added and the mixture was incubated for 15 min at 22 °C. to allow prebinding of the test compounds to the enzyme before the start of the kinase reaction. Then the kinase reaction was started by the addition of 3 μl of a solution of adenosine-tri-phosphate (ATP, 16.7 μM=>final conc. in the 5 μl assay volume is 10 μM) and substrate (1.67 μM=>final conc. in the 5 μl assay volume is 1 μM) in assay buffer and the resulting mixture was incubated for a reaction time of 60 min at 22 °C. The concentration of Akt2 in the assay was adjusted depending of the activity of the enzyme lot and was chosen appropriate to have the assay in the linear range, typical enzyme concentrations were in the range of about 0.2 ng/μl (final conc. in the 5 μl assay volume). The reaction was stopped by the addition of 5 μl of a solution of HTRF detection reagents (200 nM streptavidine-XL665 [Cisbio] and 1.5 nM anti-phosho-Serine antibody [Millipore, cat. #35-001] and 0.75 nM LANCE Eu-W 1024 labeled anti-mouse IgG antibody [Perkin Elmer]) in an aqueous EDTA-solution (100 mM EDTA, 0.1% (w/v) bovine serum albumin in 50 mM HEPES/NaOH pH 7.5). The resulting mixture was incubated 1 h at 22 °C. to allow the binding of the biotinylated phosphorylated peptide to the streptavidine-XL665 and the antibodies. Subsequently the amount of phosphorylated substrate was evaluated by measurement of the resonance energy transfer from the anti-mouse-IgG-Eu-Chelate to the streptavidine-XL665. Therefore, the fluorescence emissions at 620 nm and 665 nm after excitation at 350 nm was measured in a TR-FRET reader, e.g. a Rubystar (BMG Labtechnologies, Offenburg, Germany) or a Viewlux (Perkin-Elmer). The ratio of the emissions at 665 nm and at 622 nm was taken as the measure for the amount of phosphorylated substrate. The data were normalised (enzyme reaction without inhibitor=0% inhibition, all other assay components but no enzyme=100% inhibition).
Sequence (P31751 whole entry): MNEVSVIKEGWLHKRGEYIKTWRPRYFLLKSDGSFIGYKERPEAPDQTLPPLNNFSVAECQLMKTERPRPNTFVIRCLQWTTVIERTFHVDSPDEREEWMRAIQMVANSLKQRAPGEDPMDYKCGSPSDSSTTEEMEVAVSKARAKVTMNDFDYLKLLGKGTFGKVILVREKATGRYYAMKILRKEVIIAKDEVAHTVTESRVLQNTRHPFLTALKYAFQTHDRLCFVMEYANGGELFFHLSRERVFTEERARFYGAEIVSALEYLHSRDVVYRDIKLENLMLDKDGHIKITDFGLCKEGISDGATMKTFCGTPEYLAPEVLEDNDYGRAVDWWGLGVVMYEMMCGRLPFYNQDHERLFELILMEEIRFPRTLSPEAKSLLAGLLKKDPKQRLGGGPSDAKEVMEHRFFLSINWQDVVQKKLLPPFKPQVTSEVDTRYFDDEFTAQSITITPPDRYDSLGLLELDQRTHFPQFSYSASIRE

Compound string: CCOC(=O)c1cn2c(-c3ccccc3)c(-c3ccc(C4(N)CCC4)cc3)nc2cn1
Test system: RAC-beta serine/threonine-protein kinase (Homo sapiens, UniProt P31751)
IC50: 0.13 µM
